Each recorded value in this set is attributed to ChEMBL document CHEMBL4689842.

# Tested on: HEK-293T
# test summary: Multiplex assay against HEK293T
# Type: toxicity, cell-based
# assay setup: human, 48 h, 1 µM, compound concentration 1 uM, replicate 2
Returns Criterion met if the recorded Population Healthy Nuclei (%) is greater than or equal to 80%, and Criterion not met otherwise.

1. COc1ccccc1CN[C@H]1C2CCN(CC2)[C@H]1C(c1ccccc1)c1ccccc1	Criterion met
2. O=c1cc(N2CCOCC2)oc2c(-c3cccc4c3sc3ccccc34)cccc12	Criterion not met
3. Cc1ccccc1C(c1ccccc1C)N1C2CCC1CC(O)(c1ccccc1)C2 (stereo unspecified)	Criterion met

----------
# Tested on: HEK-293T
# test summary: Multiplex assay against HEK293T
# Format: toxicity, cell-based
# assay setup: human, 24 h, 10 µM, compound concentration 10 uM, replicate 2
Returns True if the recorded Population Fragmented Nuclei (%) is greater than or equal to 6%, and False otherwise.

1. CNC(=O)Nc1ccc(-c2nc(N3CC4CCC(C3)O4)c3cnn(C4CCC5(CC4)OCCO5)c3n2)cc1	True
2. CC(C)NC(=O)N1CC[C@H](NC2=Nc3cc(F)ccc3N(CC(F)F)c3ccc(Cl)cc32)C1	True
3. C[C@]12CC[C@@H]3c4ccc(O)cc4CC[C@H]3[C@@H]1CC[C@@H]2O	False
4. O=C(c1cc2c(cc1F)OC(c1ccc(F)cc1)(c1ccc(Cl)cc1Cl)O2)N1CCOCC1 (centres undefined)	True
5. O=c1cc(N2CCOCC2)oc2c(-c3cccc4c3sc3ccccc34)cccc12	True
6. C=CC(=O)Nc1ccc2[nH]c(=O)n(C3CCN(Cc4ccc(-c5nc6cc[nH]c(=O)c6cc5-c5ccccc5)cc4)CC3)c2c1	True
7. Cc1ccc2c(c1)c1c(n2CCc2ccc(C)nc2)CCN(C)C1 [LATREPIRDINE]	False
8. CNC(=O)Nc1ccc2c(c1)[C@@]1(CC2)OC(=O)N(CC(=O)N(Cc2ccc(F)cc2)[C@@H](C)C(F)(F)F)C1=O	True
9. CC(C)(C)NC[C@H](O)COc1nsnc1N1CCOCC1	False
10. C=CC(=O)Nc1cccc(Sc2nc(Nc3ccc(N4CCN(C)CC4)cc3)ncc2Cl)c1	True
11. C=CC(=O)Nc1cccc(Oc2nc(Nc3ccc(N4CCN(C)CC4)cc3OC)ncc2Cl)c1	True
12. Cc1nc(N2CC[C@H](O)C2)ncc1-c1cc(C(F)(F)F)cc2[nH]ncc12	True
13. O=c1[nH]c2ccccc2n1C1CCN(Cc2ccc(-c3[nH]c4cc5ncnc5cc4nc3-c3ccccc3)cc2)CC1	False

----------
# System: U2OS
# test summary: Multiplex assay against U2OS
# Type: toxicity, cell-based
# assay setup: human, 48 h, 10 µM, compound concentration 10 uM, replicate 2
Returns fulfilled if the recorded Population Mitotic Cells (%) is greater than or equal to 30%, and not fulfilled otherwise.

1. CCc1nn(CCCN2CCN(c3cccc(Cl)c3)CC2)c(=O)n1CCOc1ccccc1.Cl [NEFAZODONE HYDROCHLORIDE]	fulfilled
2. CCc1ccc(OCc2ccccc2C(=O)Nc2ccc3nc(C)cc(N)c3c2)cc1.Cl	not fulfilled
3. CC(C)c1noc(N2CCC(COc3ccc(-c4ccc(S(C)(=O)=O)cc4)nc3)CC2)n1	fulfilled
4. CCCSc1nc(N[C@@H]2C[C@H]2c2ccc(F)c(F)c2)c2nnn([C@@H]3C[C@H](OCCO)[C@@H](O)[C@H]3O)c2n1	not fulfilled
5. COc1ccccc1CN[C@H]1C2CCN(CC2)[C@H]1C(c1ccccc1)c1ccccc1	fulfilled
6. Cc1ccccc1C(c1ccccc1C)N1C2CCC1CC(O)(c1ccccc1)C2 (configuration not stated)	fulfilled
7. CN1CCN(Cc2ccc(Nc3ncc(Cl)c(Nc4ccccc4S(=O)(=O)N(C)C)n3)cc2)CC1	not fulfilled

----------
# Tested on: U2OS
# test summary: Multiplex assay against U2OS
# Type: toxicity, cell-based
# assay setup: human, 12 h, 10 µM, compound concentration 10 uM, replicate 2
Examples of compounds with documented Population Apoptotic (%) follow.
measured property: Population Apoptotic (%)

1. Cc1cccc(CN2CCN(C(c3ccccc3)c3ccc(Cl)cc3)CC2)c1.Cl.Cl (configuration not stated)	50
2. COc1ccccc1CN[C@H]1C2CCN(CC2)[C@H]1C(c1ccccc1)c1ccccc1 [CP-96345]	50
3. C=CC(=O)Nc1cccc(Oc2nc(Nc3ccc(N4CCN(C)CC4)cc3OC)ncc2Cl)c1	25
4. CCc1ccc(OCc2ccccc2C(=O)Nc2ccc3nc(C)cc(N)c3c2)cc1.Cl	76
5. O=c1[nH]c2ccccc2n1C1CCN(Cc2ccc(-c3[nH]c4cc5ncnc5cc4nc3-c3ccccc3)cc2)CC1	46
6. Cl.O=C(O)c1cc(-c2ccc(C3CCNCC3)cc2)c2ccc(-c3ccc(C(F)(F)F)cc3)cc2c1	60
7. COc1cc2ncn(-c3cc(OCc4ccccc4C(F)(F)F)c(C(N)=O)s3)c2cc1OC [GW843682X]	50
8. COc1cc(Nc2nccc(-c3cnn4nc(OC)ccc34)n2)cc(C(F)(F)F)c1	33
9. C=CC(=O)Nc1ccc2[nH]c(=O)n(C3CCN(Cc4ccc(-c5nc6cc[nH]c(=O)c6cc5-c5ccccc5)cc4)CC3)c2c1 [Borussertib]	60
10. COc1ccc(-c2ccc3ncc4c(c3c2)n(-c2ccc(N3CCNCC3)c(C(F)(F)F)c2)c(=O)n4C)cn1.O=C(O)/C=C\C(=O)O [BGT-226]	100
11. CC(C)NC(=O)N1CC[C@H](NC2=Nc3cc(F)ccc3N(CC(F)F)c3ccc(Cl)cc32)C1	0
12. Cc1nc(N2CC[C@H](O)C2)ncc1-c1cc(C(F)(F)F)cc2[nH]ncc12	16

----------
# Tested on: U2OS
# test summary: Multiplex assay against U2OS
# Assay type: toxicity, cell-based
# assay setup: human, 12 h, 1 µM, compound concentration 1 uM, replicate 2
measured property: Population Apoptotic (%)

1. C[C@]12CC[C@@H]3c4ccc(O)cc4CC[C@H]3[C@@H]1CC[C@@H]2O	50
2. CCc1nn(CCCN2CCN(c3cccc(Cl)c3)CC2)c(=O)n1CCOc1ccccc1.Cl [NEFAZODONE HYDROCHLORIDE]	0
3. CC(C)c1noc(N2CCC(COc3ccc(-c4ccc(S(C)(=O)=O)cc4)nc3)CC2)n1	50
4. O=c1[nH]c2ccccc2n1C1CCN(Cc2ccc(-c3[nH]c4cc5ncnc5cc4nc3-c3ccccc3)cc2)CC1	37
5. Cc1ccc2c(c1)c1c(n2CCc2ccc(C)nc2)CCN(C)C1 [LATREPIRDINE]	100
6. Cc1c[nH]c2nccc(Oc3c(F)cc(Nc4cc(Cl)nc(N)n4)cc3F)c12	44
7. COc1cc(Nc2nccc(-c3cnn4nc(OC)ccc34)n2)cc(C(F)(F)F)c1	50
8. COc1ccccc1CN[C@H]1C2CCN(CC2)[C@H]1C(c1ccccc1)c1ccccc1	66

----------
Examples of molecules with documented Population Apoptotic (%) follow.
# Tested on: Fibroblast
# test summary: Multiplex assay against human fibroblast
# Type: toxicity, cell-based
# assay setup: 24 h, 1 µM, compound concentration 1 uM, replicate 2
measured property: Population Apoptotic (%)

1) CC1=C(C(=O)Nc2cc3cn[nH]c3cc2F)C(c2ccc(C(F)(F)F)cc2)CC(=O)N1 (stereo not drawn)	42
2) Cc1ccc(C)c(Oc2ccncc2C(=O)N2CCN(C3CC3)c3ccccc32)c1	42
3) CNC(=O)Nc1ccc(-c2nc(N3CC4CCC(C3)O4)c3cnn(C4CCC5(CC4)OCCO5)c3n2)cc1	25

----------
# System: HEK-293T
# test summary: Multiplex assay against HEK293T
# Assay type: toxicity, cell-based
# assay setup: human, 24 h, 10 µM, compound concentration 10 uM, replicate 1
measured property: Population Fragmented Nuclei (%)

1) COc1ccccc1CN[C@H]1C2CCN(CC2)[C@H]1C(c1ccccc1)c1ccccc1	13
2) Cc1cccc(CN2CCN(C(c3ccccc3)c3ccc(Cl)cc3)CC2)c1.Cl.Cl (stereo not given)	11
3) CC(C)c1noc(N2CCC(COc3ccc(-c4ccc(S(C)(=O)=O)cc4)nc3)CC2)n1	15
4) O=c1cc(N2CCOCC2)oc2c(-c3cccc4c3sc3ccccc34)cccc12	15
5) CNC(=O)Nc1ccc(-c2nc(N3CC4CCC(C3)O4)c3cnn(C4CCC5(CC4)OCCO5)c3n2)cc1	23

----------
# System: U2OS
# test summary: Incucyte cell viability with U2OS; also: filed as whole numbers so only -1 and 0 and 1 occur
# Type: toxicity, cell-based
# assay setup: human, 6 h, 10 µM, compound concentration 10 uM, replicate number 2, timepoint 6 hours
measured property: Growth Rate

1. COC(=O)/C=C/c1cccc(N(Cc2ccc(-c3ccc(N(C)C)cc3)cc2)C(=O)C2CCCCC2)c1	0
2. Cl.Clc1cccc(COc2cncc(N3CCNCC3)n2)c1	0
3. O=C(NCc1ncc(C(F)(F)F)cc1Cl)c1ccc2c(c1)C1(CCS(=O)(=O)CC1)[C@@H](C1CC1)N2S(=O)(=O)c1ccc(F)cc1	0
4. Cc1noc([C@H]2C[C@@H](c3ccc(C(F)(F)F)cc3)CN(C(=O)N3CCS(=O)(=O)C3)C2)n1	1
5. CN1CCN(Cc2cc(NC(=O)c3ccc4c(c3)CN(c3ccccc3)CC4)cc(C(F)(F)F)c2)CC1	1
6. O=C([O-])c1cc2ccccc2c(Cc2c(O)c(C(=O)[O-])cc3ccccc23)c1O.[Na+].[Na+]	1
7. CN(C)C(=O)Cn1cc(-c2nc([C@@](C)(c3ccc(-c4cnc(N)nc4)cc3)C3CC3)no2)cn1	1
8. O=C(Cc1ccccc1)Nc1nc2ccc(Cl)cc2c2nc(-c3ccco3)nn12	0
9. Cc1cc(C(C)(C)C)c(O)c(C)c1CC1=NCCN1.Cl [OXYMETAZOLINE HYDROCHLORIDE]	1
10. O=C1CCc2cc(Nc3cc(OC4CCOCC4)c([N+](=O)[O-])cc3Cl)ccc2N1	1
11. CC1(C)CCC(C)(C)c2cc(C(=O)Nc3ccc(C(=O)O)cc3)ccc21	1
12. O=C(O)C1CN(Cc2ccc(-c3nc4cc(Cc5ccccc5F)ccc4s3)c(F)c2)C1	0
13. COC(=O)C(Cc1ccc(OCCn2c(=O)sc3cc(C(=O)c4ccccc4)ccc32)cc1)C(=O)OC	1
14. CC(C)OC(=O)N1CCC(Oc2ncnc3c2cnn3-c2ccc(S(C)(=O)=O)cc2F)CC1	0
15. COc1cc(C(=O)NS(=O)(=O)c2ccccc2C)ccc1Cc1cn(C)c2ccc(NC(=O)OC3CCCC3)cc12	1
16. COc1ccc(-c2ccc3cc(C(=O)O)ccc3c2)cc1C12CC3CC(CC(C3)C1)C2	0
17. COc1ccc(S(=O)(=O)c2cc(OC)ccc2S(=O)(=O)c2ccc([C@H](C)NS(C)(=O)=O)cc2)cc1	0
18. COC(=O)C1=C(C)NC(C)=C(C(=O)OCCCN2CCC(c3ccccc3)(c3ccccc3)CC2)[C@H]1c1cccc([N+](=O)[O-])c1	0
19. C#Cc1cccc(Nc2ncnc3cc(OCCOC)c(OCCOC)cc23)c1	0
